Molecular target: DNMT3B (DNMT3b1) (Homo sapiens, UniProt Q9UBC3 Q9UBC3:1-853)
Experiment: inhibition; tritiated methyl incorporation from SAM
pIC50: −log10 of the molar value.
MEASURED_METRIC: pIC50

• CCTATGCGATCGAGTTTTCTCGATCGCATAGG (structured_DNA, 5mC at 7 and 11; zebularine (pyrimidin-2-one ribonucleoside) at 21 and 25; phosphodiester [7,11,21,25]) [MTC-427 (MTC-423m)] = 5.21

The reported numbers originate from patent US20150167004.
